# measurement target: AF9-DOT1L interaction (Homo sapiens)
# Construct: human AF9 AHD domain (475–568); made in house; host or cells: E. coli BL21(DE3)
# assay comment: AlphaLisa assay, AF9-DOT1L interaction
# Assay type: binding
# run conditions: compound at 5 μM, read-out: % Inhibition at 5 μM against the AF9-DOT1L interaction
measure: inhibition at 5 µM (%)
Expressed in %, but write only the number.

inhibition at 5 µM lookup needed for O=C(NCC1CCNCC1)c1cc2ccc(-c3ccc(CCO)cc3)cc2[nH]1 , thanks.
5.6

How about O=C(NCc1ccc(-c2ccc3cc(C(=O)NCC4CCNCC4)oc3c2)cc1)OCc1ccccc1 ?
27

Same thing, different molecule: O=C(NCC1CCNCC1)c1cc2ccc(Oc3ccc(Oc4ccc(Cl)cc4)cc3)cc2s1
50

Can you check CC(=O)c1ccc(-c2ccc3cc(C(=O)NCC4CCNCC4)[nH]c3c2)cc1 next?
37

# repeat for O=C(NCC1CCNCC1)c1cc2ccc(-c3ccc(O)cc3)cc2s1
0

Again, but for O=C(NCC1CCNCC1)c1cc2ccc(-c3ccc(N4CCOCC4)cc3)cc2o1
40

Another molecule: O=C(NCC1CCNCC1)c1cc2ccc(-c3ccc(N4CCNCC4)cc3)cc2[nH]1
40

Would you kindly repeat that for CC(C)(C)c1ccc(-c2ccc3cc(C(=O)NCC4CCNCC4)sc3c2)cc1 ?
19

* * *

# measurement target: AF9-DOT1L interaction (Homo sapiens)
# Construct: human AF9 AHD domain (475–568); made in house; host or cells: E. coli BL21(DE3)
# assay comment: AlphaLisa assay, AF9-DOT1L interaction
# Format: binding
# run conditions: compound at 5 μM, read-out: % Inhibition at 5 μM against the AF9-DOT1L interaction
Decision: inhibition at 5 µM >= 30% yields criterion met, all other cases yield criterion not met.

Item O=C(NCC1CCNCC1)c1cc2ccc(-c3ccc(C(=O)N4CCCC4)cc3)cc2o1 with inhibition at 5 µM of 30% or above?
criterion not met

Check COc1ccc(-c2ccc3cc(C(=O)NCC4CCNCC4)sc3c2)cc1 too.
criterion met

Field entry: O=C(NCC1CCNCC1)c1cc2ccc(-c3ccc(C4CCCCC4)cc3)cc2[nH]1
criterion met

Moving on to O=C(NCC1CCNCC1)c1cc2cc(-c3ccc(N4CCNCC4)cc3)ccc2[nH]1
criterion met

Please answer likewise for O=C(NCC1CCNCC1)c1cc2ccc(-c3ccc(C4CCCCC4)cc3)cc2o1
criterion not met

Please do the same for CN1CCN(c2ccc(-c3ccc4cc(C(=O)NCC5CCNCC5)oc4c3)cc2)CC1 as well.
criterion met

Can you check O=C(NCC1CCNCC1)c1cc2ccc(-c3ccc(N4CCOCC4)cc3)cc2s1 next?
criterion met

* * *

For each of the compounds below, state its inhibition at 5 µM.
# measurement target: AF9-DOT1L interaction (Homo sapiens, UniProt P42568)
# Construct: human AF9 AHD domain (475–568); made in house; host or cells: E. coli BL21(DE3)
# Sequence (P42568 475-568): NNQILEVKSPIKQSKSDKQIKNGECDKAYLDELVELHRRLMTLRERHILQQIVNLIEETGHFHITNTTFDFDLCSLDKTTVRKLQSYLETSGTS
# assay comment: AlphaLisa assay, AF9-DOT1L interaction
# Assay type: binding
# run conditions: compound at 5 μM, read-out: % Inhibition at 5 μM against the AF9-DOT1L interaction
Provide the reading as a plain figure in %.

Look up inhibition at 5 µM for this compound: O=C(NCC1CCNCC1)c1cc2ccc(-c3ccc(-c4ccccc4)cc3)cc2o1 [Compound 67]
0

Continue with O=C(NCC1CCNCC1)c1cc2ccc(-c3ccc(F)cc3)cc2s1 [Compound 49]
21

Repeat with O=C(NCC1CCNCC1)c1cc2ccc(-c3ccc(C(=O)N4CCC(N5CCCCC5)CC4)cc3)cc2o1 [Compound 66]
0
